System: K4 kissing-loop RNA reporter;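 also: bound reporter read as fluorescence of individual clusters on recovered sequencing chips by microscopy, with normalized cluster intensities fitted with a binding model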
TEST_SUMMARY: apparent KD of K4 kissing-loop reporter; higher = weaker reporter binding
ASSAY_CONDITIONS: Eterna round: R107; input ligand: none
ASSAY_METRIC: apparent KD of K4 kissing-loop reporter

CCAUCGCUAUUCGAUACCAGCCAGGAGGUCUUUGGCCUCCUAUUGGAGUGAUGUUCCAUAGGCCCUUGGCAGCGAAUAGUGAUGG [Theophylline B K4 16] : 283 nM

Enquiry: Which apparent KD of K4 kissing-loop reporter is reported for this sequence? AAAUUCUUUUUUUUAUUUAACUUUUCAGAAGGAGCGUGGUAGUACACAGGUAGGUCGCUGAAUAUAAGACUAGUGAUGUUAGUUA [JR_SSArginiA_Sub009]
Return: 235 nM

Enquiry: Which apparent KD of K4 kissing-loop reporter is reported for this sequence? GGUAGCAUGGCGGCCGCCACUCUUCAUUAGUGAUGUUAAUGCCGAGUGCGCUAACUCCAACUGGAGAGGACCGGGCCAUGCUACC
Return: 288 nM

Enquiry: Which apparent KD of K4 kissing-loop reporter is reported for this sequence? UUUAUGAUGUCGGCCGCCACUGGAUUAAUAUGUGUGUAAUCUAGUUCUGAGUGAUGUUUAGAGUCCAGGACCGGGACAUUUGUUA [#11 K4 Tryptophan B Exclusion]
Return: 522 nM

Enquiry: Which apparent KD of K4 kissing-loop reporter is reported for this sequence? CGCAGUGAUGUUGCUAUUAUUCUUGGUUAACGAGGACCGGUACGGCCGCCACUCGAUUUCUAUCUAAUCCAGUGUUUUUUUGAGU [JR_ExcTryptoA_Sub003]
Return: 396 nM

Enquiry: Which apparent KD of K4 kissing-loop reporter is reported for this sequence? UGGACCUGACUCGAUAAGAGUCAAUGAGAUACCAGCCACGAAAGUGGCCCUUGGCAGCUCUGCCAGUGAUGUUGGUCAAGGUCCU [#SwitchBubble 5 #StaticStem]
Return: 1550 nM
